Test system: intestinal alkaline phosphatase [Mus musculus]
Assay: mouse intestinal phosphatase enzyme activation – biochemical, luminescence, single concentration, confirmation (AID 434970)
Settings: purified mouse IAP, CDP-Star luminescence, 30 min, at 10 µM; active compounds read low
Among all 11,000 compounds or so, about 310 (2.8%) were called active. What follows is part of a selection rich in actives, with near analogues and random picks from the rest.

{"compound": "Cc1cccc(C2=NN(c3ccccc3)[C@@H](C(=O)N3CCOC3=O)[C@@H]2c2ccccc2)c1", "result unit": "%", "activity change, negative = activation": 3}
{"compound": "CCOc1ccc(NC(=O)CN(C)CC(=O)NC2CCCc3ccccc32)cc1OCC (stereo not given)", "result unit": "%", "activity change, negative = activation": -9.8}
{"compound": "Cc1c(Cl)cccc1NC(=S)NCCC(c1ccccc1)c1ccccc1", "result unit": "%", "activity change, negative = activation": -375}
{"compound": "COc1cccc(-c2cc(C(F)(F)F)n3ncc(C(=O)NCC4CCCO4)c3n2)c1 (stereo not given)", "result unit": "%", "activity change, negative = activation": -4.65}
{"compound": "CC1CN(c2nc3c(c(=O)n(Cc4ccc(Cl)c(Cl)c4)c(=O)n3C)n2C)CC(C)O1 (stereo not given)", "result unit": "%", "activity change, negative = activation": -0.8}
{"compound": "Cc1cccc(CCNC(=O)CCc2c(C)nc3ncnn3c2C)c1", "result unit": "%", "activity change, negative = activation": 9.35}
{"compound": "CCOc1ccc(Br)cc1S(=O)(=O)Nc1ccccc1N1CCOCC1", "result unit": "%", "activity change, negative = activation": 8.1}
{"compound": "CCn1c(=O)c(C(=O)NCCN2CCCCC2)c(O)c2ccccc21", "result unit": "%", "activity change, negative = activation": 14.8}
{"compound": "COc1ccc(C2/C=C\\CN(S(=O)(=O)c3ccc(C)cc3)CC(=O)N2Cc2cccc(F)c2)cc1 (stereo not given)", "result unit": "%", "activity change, negative = activation": -8}
{"compound": "COc1ccc(C2/C=C\\CN(C(=O)OCC3c4ccccc4-c4ccccc43)CC(=O)N2Cc2cccc(F)c2)cc1 (stereo not given)", "result unit": "%", "activity change, negative = activation": -10.4}
{"compound": "S=C(NCCC(c1ccccc1)c1ccccc1)Nc1ccccc1Cl", "result unit": "%", "activity change, negative = activation": -84.1}
{"compound": "Cc1c(Cl)cccc1NC(=S)NCc1ccccc1", "result unit": "%", "activity change, negative = activation": -4}
{"compound": "COC(=O)c1ccc(NC(=S)NC2CCc3ccccc32)cc1 (stereo not given)", "result unit": "%", "activity change, negative = activation": -50.8}
{"compound": "COc1ccc(/C=N/NC(=O)c2cc(-c3ccccc3OC)nc3ccccc23)cc1COC(C)=O", "result unit": "%", "activity change, negative = activation": 7.05}
{"compound": "CCOC(=O)C1(CC)NC(c2ccco2)C2C(=O)N(c3ccc(C)cc3)C(=O)C21 (stereo not given)", "result unit": "%", "activity change, negative = activation": -4.65}
{"compound": "Cc1ccc(-c2nnn(CC(=O)N3CCCc4ccccc43)n2)cc1", "result unit": "%", "activity change, negative = activation": -6.35}
{"compound": "CCOC(=O)c1c(C)[nH]c(O)c1C=Nc1ccc(C(F)(F)F)cc1", "result unit": "%", "activity change, negative = activation": 15.4}
{"compound": "C#CCOCCOCCOCCNc1nc(N2CCN(C(=O)CCCCCCCCCCNC(=O)[C@H]([C@@H](C)CC)n3cc(CCCCCN)nn3)CC2)nc(N2CCN(C(=O)CCCCCCCCCCNC(=O)[C@@H]([C@H](C)O)n3cc(C)nn3)CC2)n1", "result unit": "%", "activity change, negative = activation": -310}
{"compound": "O=C(COc1ccccc1Cl)OCC(=O)N1CCN(S(=O)(=O)c2ccccc2)CC1", "result unit": "%", "activity change, negative = activation": 11.7}
{"compound": "CCOC(=O)N1CCC(NC(=O)C2CCC(Cn3c(=O)[nH]c4ccccc4c3=O)CC2)CC1 (stereo not given)", "result unit": "%", "activity change, negative = activation": 9.15}
